FYI, the data here is from the supplement of paper PMC6555819.

- Test system: RARb:RXRa (NR concentration 270 nM, RXRa partner concentration 90 nM)
- assay: PBM binding z-score (relative to random genomic background probes); higher = stronger binding; sequences stand for … in GC…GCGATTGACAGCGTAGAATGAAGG
Would you please tag the item Y when its PBM binding z-score is 3 or above, and N when it is below?

{"polymer_sequence": "AATACAGGGTCACTAGGCCAGCGTAGGTACGAAT", "category_label": "Y"}
{"polymer_sequence": "GGAACGAGGGCAAAGCTGATAGCATCTGTCGACG", "category_label": "N"}
{"polymer_sequence": "CCTAGTTGGTCAGGAGGTCGCACACCGGATATGA", "category_label": "N"}
{"polymer_sequence": "ATCCCTAGGTAACAAGTTCAGTGAAAGAGAGGAC", "category_label": "N"}
{"polymer_sequence": "TCATATAGGTAAAGCTGAAAGTCGAACGATATGA", "category_label": "N"}
{"polymer_sequence": "TCTCGGAGGATACGAAGGTCAGAGCTTTCCAGAG", "category_label": "N"}
{"polymer_sequence": "ACTATTAGTTGAGACGAGGACAACCGATAGGTTG", "category_label": "N"}
{"polymer_sequence": "CTGACTGGGGCAAAGGTTACCATACTCAGTACGA", "category_label": "N"}
{"polymer_sequence": "TCGTGTAGGTTAGGGGCATTCAGAATGGCGTCGA", "category_label": "N"}
{"polymer_sequence": "GCTAGCAGGCCATTTGGGTCGCTCAATGACGGGC", "category_label": "N"}
{"polymer_sequence": "ATCGAAAGGTCGACAAGGTGAGTATACACCGTTT", "category_label": "Y"}
{"polymer_sequence": "ATCGAAAGGTAGAAGGTGAGTATACCCACCCGAA", "category_label": "N"}
{"polymer_sequence": "CCGACTGGGGCATATGGTTACCATAAGCCAGCCC", "category_label": "N"}
{"polymer_sequence": "AATACTGGGTCATCGTAGGCCAGAGTACGCACAG", "category_label": "Y"}
{"polymer_sequence": "CCTGCTAGGTCAATGGCCAGCTAAAGCAGCTCGC", "category_label": "Y"}
{"polymer_sequence": "CAAACTAAGTCAAGAGGTCAAAGTCCGCTTCCCG", "category_label": "Y"}
{"polymer_sequence": "TCTAGTAGATCAAAGGTTAAGAAAGCCGAAGCCT", "category_label": "N"}
{"polymer_sequence": "AGTCAAAGTTCACTAGGTACCGTAAGATTCAGCT", "category_label": "Y"}
{"polymer_sequence": "ACAGACAGGTGCTGAAGGTAACTCAGGCTATCAT", "category_label": "N"}
{"polymer_sequence": "TCATATGGGTAAATGCTAGGTGAAAGTCCGATCT", "category_label": "N"}
{"polymer_sequence": "CGAACGTGGGCATGAGTTGATAGCAAATGCCGAT", "category_label": "N"}
{"polymer_sequence": "CTACCAAGGTGAAAAAGGTCGTTGATTACTATTC", "category_label": "N"}
{"polymer_sequence": "CTCGAAAGGTCGTGCTCAGGCGAGTATACCAAAC", "category_label": "Y"}
{"polymer_sequence": "AGTCAAAGTTCAGGACGAGGTAACGAAAAGCACG", "category_label": "Y"}
{"polymer_sequence": "CCTAGCACGCCAATCTGGGTCACTCAAGGCTTGA", "category_label": "N"}
{"polymer_sequence": "CAGTCTAGGTCAGGGCCAGTATAGGAGGAACGTT", "category_label": "Y"}
{"polymer_sequence": "ATATGTAGGTCACATCCGGGTCATTCAGGCTATG", "category_label": "Y"}
{"polymer_sequence": "TCTAGTTGGTAACGGAGGTCACACACGACGGGTA", "category_label": "Y"}
{"polymer_sequence": "CCTGCTAGGTCAATGGTCTGCTAAAGCAGCTCGC", "category_label": "Y"}
{"polymer_sequence": "CAAACTAGGGCACGAAAGGTCAAAGTCGAATGAC", "category_label": "Y"}
{"polymer_sequence": "CCTATTAGTTGACCATAAGGGCAATCGAAGCTCG", "category_label": "N"}
{"polymer_sequence": "ACTTACGGGTCACCGAGGTTATAGCACGCGTATA", "category_label": "Y"}
{"polymer_sequence": "CCTACTGGGCCAAGGTCATGGATCAGTCAAAGCA", "category_label": "Y"}
{"polymer_sequence": "AGGCAAAGTTCACTAGGTAACGTAAGATTCAGCT", "category_label": "Y"}
{"polymer_sequence": "TCTTGTAGATCAGCAGGTTAGGAAAGCTGGCCAA", "category_label": "N"}
{"polymer_sequence": "CCGACTGGGGCTAGGTTACCATAACGCACAGCCA", "category_label": "N"}
{"polymer_sequence": "CGTACAAGGTCAGAGAGGTCAGTGAATGCCGAGT", "category_label": "Y"}
{"polymer_sequence": "CCTAATGGGCCAAAGGTCATTGATTCCAATGCTC", "category_label": "Y"}
{"polymer_sequence": "CCTAGTCGGTCAGGAGGTCACACACCGGATATGA", "category_label": "Y"}
{"polymer_sequence": "ACTAGCAGGCAAAGTTTGGGTCACTCAAACAAAG", "category_label": "N"}
{"polymer_sequence": "GCTAGCAGTCCATTTGGGTCACTCAATGACGGGC", "category_label": "N"}
{"polymer_sequence": "TCTGCTCGGTCAGTTGGTCAGCTAACGAGCTGCC", "category_label": "N"}

###

- Tested on: LXRb:RXRa (NR concentration 270 nM, RXRa partner concentration 90 nM)
- assay: PBM binding z-score (relative to random genomic background probes); higher = stronger binding; sequences stand for … in GC…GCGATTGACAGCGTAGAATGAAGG

{"polymer_sequence": "CCTGCTAGCTCATGGTCAGCTAATCTACAGTATG", "subject_of_test": "LXRb:RXRa (NR concentration 270 nM, RXRa partner concentration 90 nM)", "PBM binding z-score": -0.626}
{"polymer_sequence": "CCTACTGGGCAACGAAAGGTCATTGATTCAGTGA", "subject_of_test": "LXRb:RXRa (NR concentration 270 nM, RXRa partner concentration 90 nM)", "PBM binding z-score": 4.2}
{"polymer_sequence": "CAAGACAGGTGAGAAGGTAACTCAGCCTCGATTA", "subject_of_test": "LXRb:RXRa (NR concentration 270 nM, RXRa partner concentration 90 nM)", "PBM binding z-score": 0.183}
{"polymer_sequence": "CATACAGGGTCAGCTAGTCCAGAGTAGGGACGGC", "subject_of_test": "LXRb:RXRa (NR concentration 270 nM, RXRa partner concentration 90 nM)", "PBM binding z-score": 2.18}

###

Below, each of the sequences is paired with its reported PBM binding z-score value.
- Tested on: PPARg:RXRa (NR concentration 180 nM, RXRa partner concentration 90 nM)
- assay: PBM binding z-score (relative to random genomic background probes); higher = stronger binding; sequences stand for … in GC…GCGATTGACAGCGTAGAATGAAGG

{"polymer_sequence": "TGACAAAGTTCAAAGGTAACGTAAGTATCCACAC", "PBM binding z-score": 6.2}
{"polymer_sequence": "CCTATTAGTGGACCATAAGGGCAACCGAAGCTCG", "PBM binding z-score": 0.711}
{"polymer_sequence": "CCTGGTTGGTCAGGAGGTCACACACCGGATATGA", "PBM binding z-score": 2.6}
{"polymer_sequence": "CCTCGTAGGACAACAGGAGGTCAGAGCTGCCAGA", "PBM binding z-score": 0.534}
{"polymer_sequence": "ACAGACAGGTGAGTGAAAGTAACTCAGCTGGACG", "PBM binding z-score": 0.742}
{"polymer_sequence": "CAAACTAGGTAACGAAAGGTCAAAGTCGAATGAC", "PBM binding z-score": 6.82}
{"polymer_sequence": "CTCTAAAGGTCGGTTGAGGTGAGTATACGGATAA", "PBM binding z-score": 0.622}
{"polymer_sequence": "CAGCCTAGGTCACGGCCAGTATAGGAGGAACGTT", "PBM binding z-score": 4.54}
{"polymer_sequence": "CATACAGGGTCAGCTAGGCCAGGGTAGGGACGGC", "PBM binding z-score": 3.01}
{"polymer_sequence": "ATCTCTAGGTAAAGATAGTTCAGTCAATGCAAAT", "PBM binding z-score": 0.623}
{"polymer_sequence": "TGTATGAGGTTATAAGATCAGGGAACGTTGCAAA", "PBM binding z-score": 1.04}
{"polymer_sequence": "TTACAAAGGTGAAGGTCGTTGATCCCTCTGTAGA", "PBM binding z-score": 3.92}
{"polymer_sequence": "GCATATAGGTAATACAAGGTGAACGTCCGATTGT", "PBM binding z-score": 1.47}
{"polymer_sequence": "TCTGCTAGGACAACGATGGTCAGCTAATCTGCTA", "PBM binding z-score": -0.0545}
{"polymer_sequence": "TCTTGTAGATCAGCCGGTTAAGAAAGCTGGCCAA", "PBM binding z-score": -0.791}
{"polymer_sequence": "ATCTCAAGGTAACCAAGTTCAGTGAATGCCGAAC", "PBM binding z-score": 0.372}
{"polymer_sequence": "TCATATAGGTAAAGGTGACAGTCGAACGATATGA", "PBM binding z-score": 3.72}
{"polymer_sequence": "TTACCTAGGTGAGCTGAGGTCGTTGATCCAACTC", "PBM binding z-score": 0.522}
{"polymer_sequence": "CCGATTGGGGCATAAGGTTACCATAAGCCAGCCC", "PBM binding z-score": 1.92}
{"polymer_sequence": "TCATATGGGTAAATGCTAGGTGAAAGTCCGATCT", "PBM binding z-score": 0.667}
{"polymer_sequence": "CCAGACAGGTGAAAGCTAACTCAGTCTGGTACGC", "PBM binding z-score": 0.368}
{"polymer_sequence": "CCTAGCAGGCCGGGGTCACTCAAGCATTTCGCTT", "PBM binding z-score": 2.5}
{"polymer_sequence": "TCTTGTAGATCAATAGAGGTGAAGAAAGTGCGCT", "PBM binding z-score": 0.0312}
{"polymer_sequence": "CTACCAAGGTGAACAAAGTCGTTGATTACTATTC", "PBM binding z-score": 0.314}
{"polymer_sequence": "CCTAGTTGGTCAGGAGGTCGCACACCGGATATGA", "PBM binding z-score": 1.06}
{"polymer_sequence": "CAAACTAGGTCCAAGGTCAAAGTCGAGCCAACCA", "PBM binding z-score": 9.35}
{"polymer_sequence": "GCTGCTAGCTCAACTGATGGTCAGCTAAAGCTCG", "PBM binding z-score": -0.747}
{"polymer_sequence": "AGAACGAAGGCAATGAGTTGATAGCACGGGTGGC", "PBM binding z-score": 0.809}
